ASSAY_COMMENT: soluble on expression in E. coli; label from the status in PepcDB or PDB records
PROPERTY_MEASURED: soluble on expression in E. coli

Here are 4 sequences together with their reported answers.
AVTIPPARHAEPQRWIARLPGFKISENKAQALWELAGKNIEGLQTDKALPTDWQAWRSEPQNAALLENLKTFFAQMPSEDEAAQGSDGIN = not soluble
MAHHHHHHMSLHKEICNYIVKFSSKPVQRLGYEPPKKKRSILRELYHKLIFPYYFKFIRAPYERWQFCATTKFLREHGLMYDDMYSDKDPVIERAISLLPKDIQTRRYRRMLRGTHINYLRLFLHPSEQNYDPYIPYLAPYIEEAKFQLQEEEELLGYHPYDRRLYSGGTTGFGDLEPGLHFLVSIPNLYGAAIPHSKKK = soluble
MGSDKIHHHHHHMVRLNEIKMQDGKIFLITGANSGLGYETSKFLLERGATVIMCCRDLLKGEKAKKELLKFKFSGKIELVELDLSDLINVKKFAESIKNTFDHLDVLINNAGIMAPPKTLSKQGFEIQFAVNHLAHMFLTLELLPMLEEKNNSRVVTVTSGVQYFGKIQWEDLQGNLKYDRWASYAQSKLANVMFGLELDSKLKETNSKTSSLLAHPGFARTNLQPKSVEANQSWQEELAYKLMDPMFQSAKMGALPQITAATLTSASGGEQYGPRFNFRGFPKICRNAPKALNQTSRKKLWDISEKLIKDFDTLSKQSK = not soluble
MAGEKFQKKGKEKWKEKVWYTVEAPPYLGSKEVSVALGEDSNSMVNRVVEVPISELTGNFKKSNEKALFRITNCEGTKCKTIFIGHYIGDDYIRRLVRRRKERIDIIEDVKTSDNSIITVKIVVVTDGKVTNTKKFQIRKVLTDFILNKGLSLPYSEFVRYLIGDDIYNDMISATKDIYPLKKIEVRKSELVSLSGISEIHAGSQLEHHHHHH = soluble

Q: For the sequence shown here, MNISPKAIKVRNIWIGGTEPCICAPVVGEDDRKVLREAEEVCRKQPDLLEWRADFFRAIDDQERVLATANGLRNIAGEIPILFTIRSEREGGQPIPLNEAEVRRLIEAICRSGAIDLVDYELAYGERIADVRRMTEECSVWLVVSRHYFDGTPRKETLLADMRQAERYGADIAKVAVMPKSPEDVLVLLQATEEARRELAIPLITMAMGGLGAITRLAGWLFGSAVTFAVGNQSSAPGQIPIDDVRTVLSILQTYSR , give the reported soluble on expression in E. coli.
A: soluble

Q: For the sequence shown here, MSIAQQLMDMGFPADKAEAAAGNNRNLDQALDWIEKDGAGVPMETDAPAQAAPGAADSGAPPVAASFKCDDCGKLLANDDAIMFHASKTKHENFSESSEAIKPLTAEEKAAKVLEIREKIKVHQAKKAKLEAEENREKEKKRREDGKAMISHKEAARDREIREAAQDRRREKNEDEIARKRVLEQIRLDKEARKAKASGQPVPEAKPAPSAAPVAPPKDYSTTTLQFRLLDGQTVRQQFEANEPLAMVRAWVETNHANGVPFTLMTPFPRKVFTEDDMGTPLKVLNLVPSANVILNRAA , give the reported soluble on expression in E. coli.
A: not soluble

Reference for the values: the DeepSol protein solubility set
